- assay_comment: NCI Yeast Anticancer Drug Screen. Data for the mec2-1 strain (AID 157)
- condition_summary: S. cerevisiae mec2-1 strain, at 50.0 µM
This is part of a sample that, as a whole, favours compounds with a hit. Of some 79,000 tested, about 15% had one in any assay. Calls of active or inactive are those of the source. No stated cut-off is given here; in the data, active means growth inhibition above about 70%; inactive means the rest.
Labels: 1 (active), 0 (inactive)

- Cc1[nH]c2ccccc2c1C(CC(=O)O)c1ccccc1 (stereo not given): 0
- O=C=Nc1ccc([N+](=O)[O-])cc1: 0
- CO/C(N)=C(\C#N)N=Cc1cccs1: 0
- O=C(O)c1ccccc1SC(Sc1ccccc1C(=O)O)c1cccs1: 0
- O=C1NC(=O)N2CC(CI)OC2C1c1ccccc1 (stereo not given): 0
- CN(C)C(SCc1c(Cl)c(Cl)c(Cl)c(Cl)c1Cl)=[N+](C)C: 0
- O/N=C/c1ccc(Cc2ccccc2)o1: 0
- CS(=O)(=O)NCC1OC(n2cnc3c(N)ncnc32)C(O)C1O (stereo not given): 0
- CC(=O)N(C)c1cccc2cccc(S(=O)(=O)O)c12: 0
- CCC1(C(=O)OC)CCc2c(OC)ccc(OC)c2C1=O (stereo not given): 0
- CCOC(CN(Cc1ccccc1)CC(OCC)OCC)OCC: 0
- COC(=O)c1cc(=O)n(C)c2ccc(OC)cc12: 0
- C=C(Cl)/C(=C\Cl)CCC(Cl)C(C)C (stereo not given) (tested in a mixture with another compound): 1
- CCC1(C)OC(C)CC(C)(C)O1 (stereo not given): 0
- Cc1nc2ccc(C(F)(F)F)cc2nc1Nc1ccc(Cl)c(Cl)c1: 0
- O=C(Nc1ccccc1)Nc1ccc2ccccc2c1: 0
- CCCCSCC(NC(=O)/C=C/c1c(C)[nH]c(=O)[nH]c1=O)C(=O)OC (stereo not given): 0
- O=c1[nH]c(-c2ccccc2N=NN2CCCCC2)nc2ccccc12: 0
- CC(C)n1c(=S)[nH]c2c(=O)[nH]c(=O)[nH]c21: 0
- COC(=O)c1ccccc1NC(=O)c1cccc(Cl)c1: 0
- COc1ccc(C)cc1NC(=S)NC(=O)c1cccc2ccccc12: 0
- CC(=O)c1ccc2c(c1)-c1ccc(C(C)=O)cc1-2: 0
- O=C1C=CC(c2ccccc2)(c2ccccc2)O1: 0
- Nc1cc(=O)[nH]c(N2CCN(c3ccccc3)CC2)n1: 0
- CSc1n[nH]c(NC(=O)c2ccccc2Cl)n1: 0

----------
Property: growth inhibition; scope: individual compounds
- assay_comment: NCI Yeast Anticancer Drug Screen. Data for the bub3 strain (AID 167)
- condition_summary: S. cerevisiae bub3 mutant strain, at 50.0 µM, stronger effect = higher value
Compounds without any hit were thinned out: in the full panel of roughly 79,000, 15% have a hit.
endpoint: growth inhibition (%)

* COc1cc(C2NC(=O)C(C)(C)O2)cc(OC)c1OC (stereo not given) | 4.8
* C=C1CN(C2=NCCO2)C1 | -13.6
* COC1/C=C/OC2(C)Oc3c(C)c(O)c4c(O)c(c(/C=N/OC/C=C(\C)CCC=C(C)C)c(O)c4c3C2=O)NC(=O)C(C)=C/C=C/C(C)C(O)C(C)C(O)C(C)C(OC(C)=O)C1C (stereo not given) | -8.95
* O=[N+]([O-])C(CO)(CO)c1ccccc1 | 3.55
* O=c1c[n+]([O-])c2ccccc2n1O | -5.7
* Fc1c(F)c(F)c(CCc2c(F)c(F)c(F)c(F)c2F)c(F)c1F | -41.4
* Cc1cc(C)c(C(C=O)c2ccccc2)c(C)c1 (stereo not given) | 6.25
* COc1ccc(NS(=O)(=O)c2ccc(N=Cc3c4ccccc4nc4ccccc34)cc2)nn1 | 93.5
* C/C(=N\NC(=O)c1cccnc1)c1cccc(/C(C)=N/NC(=O)c2cccnc2)n1.CC(=O)[O-].CC(=O)[O-].[Zn+2] | -6.1
* Cc1cc2nnc(-c3cccc([N+](=O)[O-])c3)n2c2nnnn12 | 37.8

----------
- assay_comment: NCI Yeast Anticancer Drug Screen. Data for the sgs1 mgt1 strain (AID 161);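 further: 0% = growth of cultures given vehicle only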
- condition_summary: S. cerevisiae sgs1 mgt1 strain, at 50.0 µM, stronger effect = higher value
The panel holds about 79,000 compounds, 15% with a hit somewhere; the sample as a whole holds those more often.
endpoint: growth inhibition (%)

• O=c1[nH]c(=O)n(C2OC(CO)C(O)C2O)cc1OCc1ccccc1 (stereo unspecified) = -22.8
• COc1ccc(C(=O)/C=c2/c(CC(=O)c3ccc(OC)cc3)nc3nnc(N)n23)cc1 = -6.25
• CC(C)(S(=O)(=O)Oc1ccccc1)S(=O)(=O)Oc1ccccc1 = -15.4
• Cn1nc(-c2ccccc2)c(N=[N+]=[N-])cc1=O = -41.3
• CCCCCCCCCCCCCCCC(C)O (stereo unspecified) = -20.1
• CC(=O)N(c1c(N)[nH]c(=O)n(C)c1=O)C1OC(CO)C(O)C(O)C1O (stereo unspecified) = 19.1

----------
- assay_comment: NCI Yeast Anticancer Drug Screen. Data for the cln2 rad14 strain (AID 165);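 further: 0% = growth equal to vehicle treated cultures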
- condition_summary: S. cerevisiae cln2 rad14 strain, at 50.0 µM, stronger effect = higher value
About 79,000 compounds went through this panel and 15% of them were active in at least one assay; those are over-represented in the sample as a whole. Active and inactive are the calls of the source. Cut-off read from the data, not from the text of the source: active = growth inhibition above about 70%; inactive = the rest.
endpoint: growth inhibition

- CSC(=N)N1N=C2c3ccccc3CC[C@@H]2[C@@H]1c1ccccc1: 38% (inactive)
- N/C(=N\c1nc(N)cc(N)n1)Nc1ccc(S(N)(=O)=O)cc1: -32.2% (inactive)
- CCOC(=O)C(Cc1cccc2ccccc12)(NC(C)=O)C(=O)OCC: -31.9% (inactive)
- Nc1ccc(C(=O)NCCCC(=O)O)cc1: 0.85% (inactive)
- O=C(c1ccccc1)C1C(C(=O)c2ccccc2)C1c1ccccc1 (stereo unspecified): 3.4% (inactive)
- O=C(Nc1cc2[nH]c(=O)c3ccccc3c2cc1[N+](=O)[O-])C(F)(F)F: 0.9% (inactive)

----------
Property: growth inhibition; scope: individual compounds
- assay_comment: NCI Yeast Anticancer Drug Screen. Data for the rad50 strain (AID 155);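 further: 0% = growth of vehicle-only cultures of the same strain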
- condition_summary: S. cerevisiae rad50 strain growth inhibition; at 50.0 µM; stronger effect = higher value
This is part of a sample that, as a whole, favours compounds with a hit. Of some 79,000 tested, about 15% had one in any assay. Where a SMILES comes first, the peptide text is derived from it. [ ]: non-standard residue; d: D form. The star is where a group is joined. Cbz = O=C(OCc1ccccc1)*; Dha = C=C(N)C(=O)O
endpoint: growth inhibition (%)

• CN(C)CCCNc1ccc2ncn3c4ccc(O)cc4c(=O)c1c23 = -4.45
• CCc1nc2c(c(=O)[nH]1)C(c1ccc(Cl)cc1)C(C)(C)O2 (centres undefined) = -1.2
• CS(=O)(=O)CC1=Nc2nnc(CCCCCCCc3nnc4n3C(=O)C(CS(C)(=O)=O)=N4)n2C1=O = -17
• CC(=O)Nc1cc(Cl)ccc1SC1OC(COC(C)=O)C(OC(C)=O)C(OC(C)=O)C1OC(C)=O (centres undefined) = -10.6
• C=C(NC(=O)C(C)NC(=O)OCc1ccccc1)C(=O)N1CCCC1C(=O)NC(C)C(=O)NC (centres undefined) (Cbz-A[Dha]PA-NHMe; configuration not given here) = 3
• O=c1[nH]cc(CNC2CCCCC2)c(=O)[nH]1 = 21.5
• CCN(CC)CCC1(C#N)Cc2ccccc2N(CC)c2ccccc21 (centres undefined) = 41.8
• CCc1cccc2[nH]c3cc([N+](=O)[O-])ccc3c12 = 12
• CCCCN(CC)C(=O)C(=O)Cc1nc2ccc(C(=O)c3ccccc3)cc2[nH]c1=O = 17.3

----------
Property: growth inhibition; scope: individual compounds
- assay_comment: NCI Yeast Anticancer Drug Screen. Data for the rad50 strain (AID 155);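 further: 0% = growth of vehicle-only cultures of the same strain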
- condition_summary: S. cerevisiae rad50 strain growth inhibition; at 50.0 µM; stronger effect = higher value
- Protocol: Growth inhibition of yeast strains with defined genetic alterations is measured as a screen for potential anti-cancer activity. Selected strains with alterations in DNA damage repair or cell cycle control were exposed to compounds and growth inhibition was measured relative to vehicle treated controls. The strain used in this assay is rad50
This is part of a sample that, as a whole, favours compounds with a hit. Of some 79,000 tested, about 15% had one in any assay.
endpoint: growth inhibition (%)

- CN(C)CCCNC(=O)Nc1ccc(Cl)cc1: 8.15
- NC(=O)c1nnn2c1nc(N)c1cc(Cl)ccc12: -28.4
- CCOC(=O)c1c(C)c2c(n1C)CC/C(=C/NCCc1ccccc1)C2=O: 93
- COc1ccc2ccccc2c1Cc1c(O)ccc2ccccc12: 15.7
- CC(C)(C)OC(=O)N(CCCCNC(=O)C(F)(F)F)CCCNC(=O)C(F)(F)F: -26.4
- O=C(O)c1ccc(N=Nc2ccccc2)cc1: -4.4
- CC(=O)O/C(C)=C/C(C)C: 2.65
- CC1=CC2OC3C(OC(=O)c4ccccc4)C(OC(=O)c4ccccc4)C(C)(C2(COC(=O)c2ccccc2)CC1)C31CO1 (configuration not stated): 6.3
- CC(=O)NNC(=O)c1ccccc1CO: -18.8
- O=C1C2ON3c4ccccc4C(=O)C3(c3ccccc3)C2C(=O)N1c1ccccc1 (configuration not stated): -40.9
- CC(=O)[C@H]1CC[C@@H]2[C@]1(C)CC1OC13[C@@]21C=C[C@@]2(CC(=O)CC[C@]32C)C2C(=O)OC(=O)C21 (some centres not stated): 17.6
- CC(C)NNC(N)=O: -0.2
